system: Porcine atria myofibrils (atrial myosin ATPase); assay: Myofibril ATPase assay, porcine atria myofibrils; format: biochemical; conditions: Y75 value (no ‡ mark); porcine atria myofibrils
Hi there, I'd appreciate the recorded Atrial EC25 for every entry that follows.
Write down the numeric answer in nM and omit the unit.

q: Recorded Atrial EC25 of C[C@@H](NC(=O)Cc1c(C2CC2)c2cc(C#N)ccc2[nH]c1=O)c1ncc(C#N)cc1F [compound 1151] , please.
a: 21520

q: Queued: Cc1c(CC(=O)N[C@H](C)c2ncc(C#N)cc2F)c(=O)[nH]c2cccc(C#N)c12 [compound 1080]
a: 210

q: Queued: C[C@H](NC(=O)[C@H](C)c1cc2c(F)c(F)ccc2[nH]c1=O)c1ncc(C#N)cc1F (relative stereo) [compound 2604]
a: 120

###

tested on: Porcine atria myofibrils (atrial myosin ATPase); assay: Myofibril ATPase assay, porcine atria myofibrils; format: biochemical; conditions: porcine atria myofibrils; Y75 value (75% activity relative to no compound)
Mark 0 for Atrial EC25 values under 2000 nM, and 1 for everything at or above.

q: Given `Cc1c(CC(=O)N[C@@H](C)c2ccc(C#N)cn2)c(=O)[nH]c2ccc(C(F)(F)F)nc12` , state whether its Atrial EC25 is at least 2000 nM.
a: 0

q: Queued: Cc1c(CC(=O)N[C@@H](C)c2ncc(F)cc2F)c(=O)[nH]c2ccnc(C(F)(F)F)c12 (single isomer, unassigned)
a: 0

q: Queued: Cc1nccc2[nH]c(=O)c(C3(C(=O)N[C@H](C)c4ncc(C#N)cc4F)CC3)c(C)c12 (single isomer, unassigned)
a: 0

q: Queued: COc1nccc2[nH]c(=O)c([C@H](C)C(=O)N[C@@H](C)c3ccc(F)cc3F)c(C(F)(F)F)c12 (single isomer, unassigned)
a: 0

q: Queued: `COc1nccc2[nH]c(=O)c(CC(=O)N[C@@H](C)c3ccc(F)cc3F)c(C)c12`
a: 0

q: Queued: `Cc1c(CC(=O)N[C@@H](C)c2ccc(F)cc2F)c(=O)[nH]c2ccc(O)nc12`
a: 1

q: Queued: Cc1c(CC(=O)N[C@H](CO)c2ncc(C#N)cc2F)c(=O)[nH]c2ccnc(C#N)c12 (single isomer, unassigned)
a: 1

###

Hi there, I'd appreciate the recorded Skeletal EC25 for every entry that follows.
system: Rabbit Psoas myofibrils (skeletal myosin ATPase); assay: Myofibril ATPase assay, rabbit psoas (skeletal) myofibrils; assay type: biochemical; settings: rabbit psoas myofibrils; Y75 value
Write down the numeric answer in nM and omit the unit.

q: Recorded Skeletal EC25 of `C[C@H](NC(=O)Cc1cc2c(OCC(F)(F)F)nccc2[nH]c1=O)c1ccc(F)cc1F` , please.
a: 12920

q: Queued: `CCOc1ccc2[nH]c(=O)c(CC(=O)N[C@@H](C)c3ccc(F)cc3F)c(C)c2n1`
a: 30

q: Queued: `C[C@H](NC(=O)Cc1cc2c(C#N)nccc2[nH]c1=O)c1ccc(F)cn1`
a: 2980

q: Queued: `Cc1c(CC(=O)N[C@@H](C)c2ccc(F)cc2F)c(=O)[nH]c2ccnc(F)c12`
a: 10

q: Queued: `Cc1nccc2[nH]c(=O)c(CC(=O)N[C@@H](C)c3c(F)cc(F)cc3F)c(C)c12`
a: 2300

###

molecular target: Porcine ventricle myofibrils (ventricular myosin ATPase) (Sus scrofa); construct: Myofibrils from porcine cardiac muscle was isolated from the left ventricle of Yucatan minipigs; tissue Exemplar Genetics; host or cells: left ventricle of Yucatan minipigs, myofibrils prepared in house; test: Myofibril ATPase assay, porcine ventricle myofibrils; type: biochemical, porcine (Yucatan minipigs); conditions: Y75 value (no ‡ mark); porcine ventricle myofibrils
recorded-metric: Ventricular EC25 (µM)
Write down the numeric answer in µM and omit the unit.

q: Recorded Ventricular EC25 of `Cc1c(CC(=O)N[C@H](C)c2ncc(C#N)cc2F)c(=O)[nH]c2ccc(F)c(C#N)c12` , please.
a: 0.16

q: Queued: `C[C@H](NC(=O)Cc1cc2cc(C#N)ccc2[nH]c1=O)c1ccc(F)cc1F`
a: 100.00

q: Queued: `Cc1c(CC(=O)N[C@H]2COCc3cc(C#N)cnc32)c(=O)[nH]c2ccc(F)cc12`
a: 100.00

q: Queued: CC[C@@H](NC(=O)Cc1c(C)c2c(C)c(F)ccc2[nH]c1=O)c1ncc(C#N)cn1 (single isomer, unassigned)
a: 1.04

###

Hi there, I'd appreciate the recorded Ventricular EC25 for every entry that follows.
molecular target: Porcine ventricle myofibrils (ventricular myosin ATPase) (Sus scrofa, UniProt P79293); construct: Myofibrils from porcine cardiac muscle was isolated from the left ventricle of Yucatan minipigs; tissue Exemplar Genetics; host or cells: left ventricle of Yucatan minipigs, myofibrils prepared in house; experiment: Myofibril ATPase assay, porcine ventricle myofibrils; assay type: biochemical, porcine (Yucatan minipigs); conditions: Y75 value (no ‡ mark); porcine ventricle myofibrils
Sequence (P79293 whole entry): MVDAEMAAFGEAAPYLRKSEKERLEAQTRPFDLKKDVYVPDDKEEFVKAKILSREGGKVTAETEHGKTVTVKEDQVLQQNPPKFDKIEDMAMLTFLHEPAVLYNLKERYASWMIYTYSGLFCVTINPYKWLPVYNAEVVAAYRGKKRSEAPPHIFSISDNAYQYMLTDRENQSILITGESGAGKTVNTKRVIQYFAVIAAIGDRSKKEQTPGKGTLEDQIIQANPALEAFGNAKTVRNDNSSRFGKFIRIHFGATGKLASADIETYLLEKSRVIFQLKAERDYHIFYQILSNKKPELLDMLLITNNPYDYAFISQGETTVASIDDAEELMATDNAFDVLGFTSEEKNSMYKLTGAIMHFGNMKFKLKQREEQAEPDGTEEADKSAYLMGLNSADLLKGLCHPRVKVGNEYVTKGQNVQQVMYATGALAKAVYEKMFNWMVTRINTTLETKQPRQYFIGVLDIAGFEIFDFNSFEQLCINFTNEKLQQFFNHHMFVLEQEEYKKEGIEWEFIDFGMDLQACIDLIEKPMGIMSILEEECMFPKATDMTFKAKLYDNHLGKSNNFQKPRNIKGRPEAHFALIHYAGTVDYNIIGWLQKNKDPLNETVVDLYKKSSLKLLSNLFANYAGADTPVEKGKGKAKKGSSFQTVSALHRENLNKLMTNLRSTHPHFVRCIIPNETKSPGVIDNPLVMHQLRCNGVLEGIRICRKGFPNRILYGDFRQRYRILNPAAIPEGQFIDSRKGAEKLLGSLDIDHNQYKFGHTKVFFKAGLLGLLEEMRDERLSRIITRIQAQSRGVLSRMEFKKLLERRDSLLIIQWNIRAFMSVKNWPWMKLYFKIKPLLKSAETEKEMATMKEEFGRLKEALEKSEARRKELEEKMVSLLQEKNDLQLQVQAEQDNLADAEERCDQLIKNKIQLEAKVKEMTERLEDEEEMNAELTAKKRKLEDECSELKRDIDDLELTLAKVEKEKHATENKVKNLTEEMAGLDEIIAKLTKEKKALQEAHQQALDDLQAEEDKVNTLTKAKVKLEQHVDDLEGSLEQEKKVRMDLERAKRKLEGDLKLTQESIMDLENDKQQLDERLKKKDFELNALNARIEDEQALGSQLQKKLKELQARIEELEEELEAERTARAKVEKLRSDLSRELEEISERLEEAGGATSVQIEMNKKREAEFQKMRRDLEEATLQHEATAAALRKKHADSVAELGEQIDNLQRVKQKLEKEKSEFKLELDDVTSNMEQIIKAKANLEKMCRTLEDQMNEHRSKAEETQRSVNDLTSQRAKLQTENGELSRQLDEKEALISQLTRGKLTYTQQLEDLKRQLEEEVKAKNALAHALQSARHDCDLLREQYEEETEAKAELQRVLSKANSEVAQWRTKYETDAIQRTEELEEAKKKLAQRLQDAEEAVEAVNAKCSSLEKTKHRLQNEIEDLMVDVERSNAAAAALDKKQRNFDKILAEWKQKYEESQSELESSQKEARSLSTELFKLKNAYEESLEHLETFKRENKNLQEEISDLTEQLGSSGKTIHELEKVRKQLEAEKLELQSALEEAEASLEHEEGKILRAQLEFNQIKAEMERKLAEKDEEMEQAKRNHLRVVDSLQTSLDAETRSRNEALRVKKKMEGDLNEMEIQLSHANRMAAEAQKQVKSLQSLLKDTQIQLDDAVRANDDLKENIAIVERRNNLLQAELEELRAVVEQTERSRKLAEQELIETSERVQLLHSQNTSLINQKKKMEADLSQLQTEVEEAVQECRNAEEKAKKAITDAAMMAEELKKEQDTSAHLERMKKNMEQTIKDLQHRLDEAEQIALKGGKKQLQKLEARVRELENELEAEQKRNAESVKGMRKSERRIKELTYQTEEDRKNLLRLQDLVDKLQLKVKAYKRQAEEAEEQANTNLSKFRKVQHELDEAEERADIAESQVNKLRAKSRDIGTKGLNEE
Write down the numeric answer in µM and omit the unit.

q: Request - read-out Ventricular EC25 | tested on Porcine ventricle myofibrils (ventricular myosin ATPase) (Sus scrofa, UniProt P79293) | molecule CC(C(=O)N[C@@H](C)c1ccc(F)cc1F)c1cc2ccccc2[nH]c1=O (stereo partly shown) [compound 134]
a: 100.00

q: Queued: Cc1c(C2(C(=O)N[C@H](C)c3ncc(C#N)cn3)CC2)c(=O)[nH]c2ccc(F)c(C#N)c12 (single isomer, unassigned) [compound 2531]
a: 15.11

q: Queued: C[C@H](NC(=O)Cc1c(C2CC2)c2c(F)cccc2[nH]c1=O)c1ncc(C#N)cc1F [compound 1144]
a: 0.84

q: Queued: Cc1c(CC(=O)N[C@H](C)c2ncc(C#N)cc2F)c(=O)[nH]c2ccc(F)c(Cl)c12 (single isomer, unassigned) [compound 2051]
a: 0.60

###

target: Porcine ventricle myofibrils (ventricular myosin ATPase) (Sus scrofa, UniProt P79293); construct: Myofibrils from porcine cardiac muscle was isolated from the left ventricle of Yucatan minipigs; tissue Exemplar Genetics; host or cells: left ventricle of Yucatan minipigs, myofibrils prepared in house; test: Myofibril ATPase assay, porcine ventricle myofibrils; type: biochemical, porcine (Yucatan minipigs); settings: Y75 value (no ‡ mark); porcine ventricle myofibrils
Classification by Ventricular EC25 follows these ranges: low bin: < 800 nM; mid bin: ≥ 800 nM and < 7000 nM; high bin: ≥ 7000 nM

q: Where would `C[C@@H](NC(=O)Cc1cc2cc(F)c(F)cc2[nH]c1=O)c1ccc(C#N)cn1` land among the classes by reported Ventricular EC25?
a: high bin

q: Queued: `Cc1ccncc1[C@@H](C)NC(=O)Cc1c(C)c2c(C)c(F)ccc2[nH]c1=O`
a: low bin

q: Queued: `C[C@H](NC(=O)Cc1cc2ccccc2[nH]c1=O)c1ccc(F)cc1F`
a: mid bin

q: Queued: `C[C@@H](NC(=O)Cc1cc2c(F)c(F)ccc2[nH]c1=O)c1ncc(F)cc1F`
a: low bin

q: Queued: `Cc1nc(C#N)cnc1[C@@H](C)NC(=O)Cc1c(C)c2cc(F)ccc2[nH]c1=O`
a: low bin

q: Queued: N#Cc1cnc2c(c1)CC[C@@H]2NC(=O)C1(c2cc3c(F)c(F)ccc3[nH]c2=O)CC1 (single isomer, unassigned)
a: high bin

q: Queued: `C[C@@H](NC(=O)Cc1cc2c(F)cc(F)cc2[nH]c1=O)c1ncc(C#N)cc1F`
a: mid bin

q: Queued: C[C@@H](NC(=O)Cc1cc2cc(F)c(F)cc2[nH]c1=O)c1ncc(C#N)cn1 (single isomer, unassigned)
a: high bin

###

Hi there, I'd appreciate the recorded Atrial EC25 for every entry that follows.
Tested on: Porcine atria myofibrils (atrial myosin ATPase)
Assay: Myofibril ATPase assay, porcine atria myofibrils
Format: biochemical
Settings: Y75 value (no ‡ mark); porcine atria myofibrils
Description: Example 1. Myofibril ATPase Assay Myofibril ATPase assays are known in the art to be useful in evaluating small molecules for the treatment of HCM and other cardiac indications. Myosin ATPase activity is assessed by using a coupled reaction system, in which ADP generated by the myosin ATPase function is coupled to the disappearance of NADH through the pyruvate kinase/lactate dehydrogenase (PK-LDH) system. […]
Write down the numeric answer in µM and omit the unit.

q: Recorded Atrial EC25 of `C[C@@H](NC(=O)Cc1c(C2CC2)c2c(F)c(F)ccc2[nH]c1=O)c1ccc(C#N)cn1` , please.
a: 100.00

q: Queued: Cc1c(CC(=O)N[C@@H](C)c2ncc(C3COC3)cn2)c(=O)[nH]c2ccc(F)c(F)c12 (single isomer, unassigned)
a: 9.19

q: Queued: Cc1c(CC(=O)N[C@H]2COc3cc(C#N)cc(F)c32)c(=O)[nH]c2ccc(F)c(C#N)c12 (single isomer, unassigned)
a: 0.05

q: Queued: `Cc1c(CC(=O)N[C@H](C)c2ccc(C#N)cn2)c(=O)[nH]c2ccc(F)c(C#N)c12`
a: 0.18

###

test system: Porcine atria myofibrils (atrial myosin ATPase); assay: Myofibril ATPase assay, porcine atria myofibrils; type: biochemical; conditions: Y75 value (no ‡ mark); porcine atria myofibrils
Hi there, I'd appreciate the recorded Atrial EC25 for every entry that follows.
Write down the numeric answer in nM and omit the unit.

q: Recorded Atrial EC25 of C[C@H](NC(=O)[C@H](C)c1cc2c(Cl)c(O)ccc2[nH]c1=O)c1ccc(F)cc1F (single isomer, unassigned) [compound 86] , please.
a: 100000

q: Queued: COc1ccc2[nH]c(=O)c(CC(=O)N[C@@H](C)c3ccc(F)cc3F)cc2c1C#N [Compound 81]
a: 100000

q: Queued: C[C@H](NC(=O)C1(c2cc3cc(F)ccc3[nH]c2=O)CC1)c1cc(C#N)ccn1 (single isomer, unassigned) [compound 2537]
a: 100000

q: Queued: CCc1c(CC(=O)N[C@H](C)c2ncc(C#N)cn2)c(=O)[nH]c2ccc(F)c(C)c12 (single isomer, unassigned) [compound 2001]
a: 330

q: Queued: Cc1c(C(F)(F)C(=O)N[C@@H](C)c2ncc(C#N)cc2F)c(=O)[nH]c2ccc(F)cc12 (single isomer, unassigned) [compound 2607]
a: 70

q: Queued: C[C@@H](NC(=O)Cc1c(C#N)c2cc(F)ccc2[nH]c1=O)c1ncc(C#N)cc1F [compound 1094]
a: 100000

q: Queued: CC(C(=O)N[C@@H](C)c1ccc(F)cc1F)c1cc2c(Br)cccc2[nH]c1=O (stereo partly drawn) [compound 94]
a: 6810

q: Queued: Cc1c(CC(=O)N[C@H](C)c2ccc(C#N)cn2)c(=O)[nH]c2cccc(F)c12 [compound 53]
a: 1930

q: Queued: CC(NC(=O)C(F)(F)c1cc2cc(F)ccc2[nH]c1=O)c1cc(C#N)ccn1 (single isomer, unassigned) [Compound 2573]
a: 100000

q: Queued: Cc1c(CC(=O)N[C@@H](C)c2ncc(C#N)cc2F)c(=O)[nH]c2ccc(F)c(C3CC3)c12 [compound 28]
a: 40

q: Queued: Cc1c(CC(=O)N[C@H](C)c2ccc(C#N)cn2)c(=O)[nH]c2cccc(C#N)c12 [compound 1076]
a: 1890

q: Queued: Cc1c(CC(=O)N[C@@H]2COc3cc(C#N)cnc32)c(=O)[nH]c2ccc(F)cc12 [compound 1062]
a: 3490

q: Queued: Cc1c(C(F)(F)C(=O)N[C@H](C)c2ncc(C#N)cc2F)c(=O)[nH]c2ccc(F)c(C#N)c12 (single isomer, unassigned) [compound 4835]
a: 180

q: Queued: Cc1c(CC(=O)N[C@H](C)c2ncc(C#N)cc2F)c(=O)[nH]c2ccc(F)c(C#N)c12 [compound 31]
a: 100

q: Queued: C[C@H](NC(=O)Cc1cc2c(Cl)c(O)ccc2[nH]c1=O)c1ccc(F)cc1F [compound 91]
a: 1380

q: Queued: C[C@@H](NC(=O)Cc1c(C2CC2)c2c(F)cccc2[nH]c1=O)c1ncc(C#N)cc1F [compound 1143]
a: 1440

q: Queued: Cc1c(CC(=O)N[C@@H](C)c2ncc(C#N)cc2F)c(=O)[nH]c2cc(F)c(F)cc12 [compound 1105]
a: 100000

q: Queued: Cc1c(F)ccc2[nH]c(=O)c(CC(=O)N[C@H](C)c3ccc(C#N)cc3F)c(O)c12 [compound 19]
a: 100000
